- EXPERIMENT SUMMARY: Confirmation screen for delayed death inhibitors of the malarial parasite plastid, 96 hour incubation; further: nearly all actives have a fitted effect of over 60% in size; further: potency means the concentration at half of the fitted maximal effect
- TEST CONTEXT: P. falciparum luciferase growth in erythrocytes; series mostly up to 28.7 µM
Screen size: about 2,300 compounds; about 1,400 (61%) were called active. Not shown: some 29% with an inconclusive outcome. So high a share suggests a set chosen from earlier hits. Some of the results follow.
// values below are reported Potency
OBSERVED PROPERTY: Potency

[[record]]
compound = "O=[N+]([O-])c1cccc2c([As](=O)(O)O)cccc12"
observed_property = "Potency"
result = "1120 nM (active)"

[[record]]
compound = "CN1CCc2cc3c(c4c2C1Cc1ccccc1-4)OCO3 (stereo not given)"
observed_property = "Potency"
result = "562 nM (active)"

[[record]]
compound = "CC[C@H]1CN2CCc3cc(OC)c(OC)cc3C2C[C@@H]1C[C@H]1NCCc2cc(OC)c(OC)cc21 (stereo not given in full)"
observed_property = "Potency"
result = "50.1 nM (active)"

[[record]]
compound = "C[C@@H]1C[C@@H]2O[C@H]2/C=C\\C=C\\C(=O)Cc2c(Cl)c(O)cc(O)c2C(=O)O1"
observed_property = "Potency"
result = "7080 nM (active)"


* * *

- EXPERIMENT SUMMARY: Confirmation screen for delayed death inhibitors of the malarial parasite plastid, 96 hour incubation; further: nearly all actives have a fitted effect of over 60% in size; further: potency means the concentration at half of the fitted maximal effect
- TEST CONTEXT: P. falciparum luciferase growth in erythrocytes; series mostly up to 28.7 µM
Out of some 2,300 compounds screened, about 1,400 (61%) were called active. Not shown: some 29% with an inconclusive outcome. So high a share suggests a set chosen from earlier hits. Some of the results follow.
OBSERVED PROPERTY: Potency

[[record]]
compound = "CC[C@H]1CN2CCc3cc(OC)c(OC)cc3[C@H]2C[C@@H]1C[C@@H]1NCCc2cc(OC)c(OC)cc21"
result = "0.501 µM (active)"

[[record]]
compound = "CC1=CC2/C=C(\\C)CCC(O)C(O)/C=C/C(=O)C23C(=O)NC(CC(C)C)C3C1C (stereo not given)"
result = "12.6 µM (active)"

[[record]]
compound = "O=C1/C(=C/c2ccccc2)C[C@@]2(O)[C@H]3Cc4ccc(O)c5c4[C@@]2(CCN3CC2CC2)C1O5 (stereo not given in full)"
result = "5.01 µM (active)"

[[record]]
compound = "COC(=O)C1=C(c2ccccc2OCc2ccccc2)C[C@@H]2CC[C@H]1N2C(=O)NCCOc1ccc(OC)cc1"
result = "12.6 µM (active)"

[[record]]
compound = "Cc1ccc(-c2nc(NC(=O)c3ccc(S(=O)(=O)N(CCC#N)CCC#N)cc3)sc2-c2ccccc2)cc1"
result = "11.2 µM (active)"

[[record]]
compound = "Fc1ccc(C[n+]2c(-c3ccccc3)cc(-c3ccccc3)cc2-c2ccccc2)cc1"
result = "2 µM (active)"

[[record]]
compound = "CC(=O)N1CC(=O)Nc2ccc(Cl)cc2C1c1ccccc1 (stereo not given)"
result = "inactive"

[[record]]
compound = "COc1ccc(Cn2c(N)c(C(=O)NCc3ccco3)c3nc4ccccc4nc32)cc1"
result = "3.98 µM (active)"

[[record]]
compound = "COc1cc(C(=O)N/N=C/C23CC[C@@H](O)CC2(O)CC[C@@H]2[C@@H]3CCC3(C)C(C4=CC(=O)OC4)CCC23O)ccc1O (stereo not given in full)"
result = "inactive"

[[record]]
compound = "CC12CC[C@H]3[C@@H](CCC4(O)C[C@H](O)CCC34/C=N/NC(=O)c3ccccc3F)C1(O)CCC2C1=CC(=O)OC1 (stereo not given in full)"
result = "inactive"

[[record]]
compound = "CC[C@H]1CN2CCc3cc(OC)c(OC)cc3[C@@H]2C[C@@H]1C[C@H]1NCCc2cc(OC)c(OC)cc21"
result = "0.224 µM (active)"

[[record]]
compound = "CCC(C(=O)N1CCC2(CC1)OCCO2)n1c2ccccc2c2nc(=O)cc(C)n21 (stereo not given)"
result = "11.2 µM (active)"

[[record]]
compound = "C[C@@H]1CC[C@H]2[C@@H](C)C(=O)O[C@@H]3O[C@@]4(C)CC[C@@H]1[C@]32OO4"
result = "0.0398 µM (active)"

[[record]]
compound = "Cc1ccc(C(C)C)c(OCC(=O)N2CCN(Cc3nc4cc([N+](=O)[O-])ccc4n3C)CC2)c1"
result = "inactive"

[[record]]
compound = "COc1cccc(-n2c(CN3CCN(C)CC3)nc3ccc([N+](=O)[O-])cc3c2=O)c1"
result = "15.8 µM (active)"

